Origin of the recorded values: ChEMBL document CHEMBL1143281

experimental-target: Adrenergic receptor alpha-2 (Rattus norvegicus, UniProt P22086+P19328+P22909)
experimental-details: Displacement of [3H]RX821002 from alpha2 adrenoceptor in Sprague-Dawley rat kidney by liquid scintillation counting
Type: tissue-based
metric-name: Ki

Example entries begin here.
compound_structure=Br.CN(C)CC[C@H]1CN=C(N)N1 data_value="> 52.86 µM"
compound_structure=CN(C)CC[C@H]1CN=CN1.Cl.Cl data_value="> 100 µM"
compound_structure=Br.CC(=O)NCC[C@@H]1CN=C(N)N1 data_value="> 100 µM"

We now examine a further compound.
Query :: Name the recorded Ki for Br.NCC[C@H]1CN=CN1 .
Result :: > 100 µM
